- Tested on: NCI/ADR-RES ovarian
- Test name: NCI tumour cell line growth inhibition, 48 h; in the data active = GI50 below about 0.43 µM; inactive = the rest
I would appreciate it if you answered using one of these outcomes: YES for active, NO for inactive

Solved entries:
{"Chemical structure": "COc1cc(-c2cc3ncccc3c3[nH]c(=O)c4cccnc4c23)cc(OC)c1OC", "System": "NCI/ADR-RES ovarian", "Answer label": "NO"}
{"Chemical structure": "O=C(Nc1ccc2c(c1)OCCO2)C(=O)c1c[nH]c2ccccc12", "System": "NCI/ADR-RES ovarian", "Answer label": "YES"}
{"Chemical structure": "Cc1cn2c(/C=N/N=C(N)N)c(-c3ccncc3)nc2s1", "System": "NCI/ADR-RES ovarian", "Answer label": "NO"}
{"Chemical structure": "CCc1nn2ncccc2c1-c1ccnc(NC2CC2)n1", "System": "NCI/ADR-RES ovarian", "Answer label": "NO"}
{"Chemical structure": "Oc1c(O)c(Cl)c(Cl)c(Cl)c1Cl", "System": "NCI/ADR-RES ovarian", "Answer label": "NO"}
{"Chemical structure": "C=C(CN1c2ccccc2Sc2ccccc21)c1ccc(C(=O)Nc2ccccc2N)cc1", "System": "NCI/ADR-RES ovarian", "Answer label": "NO"}
{"Chemical structure": "Cn1cc(C2=C(c3ccccc3C(F)(F)F)C(=O)NC2=O)c2ccccc21", "System": "NCI/ADR-RES ovarian", "Answer label": "NO"}

Now, please, on to the next compound.
Just curious, what result did COc1ccc2[nH]c(C(=O)OCc3ccc4cccc(O)c4n3)cc2c1 get here? NO

---

- System: MALME-3M melanoma
- Test name: NCI tumour cell line growth inhibition, 48 h
Measurement label: TGI

Take a look at these entries with their results.
{"Molecule": "C/C(O[Si](C(C)C)(C(C)C)C(C)C)=C(\\C)C(=O)N(C)c1ccccc1Cl", "TGI": "> 100 µM"}
{"Molecule": "Cc1ccc(SCC(OCn2cnc3c(Cl)nc(N)nc32)[C@H](C)F)cc1 (stereo partly specified)", "TGI": "> 100 µM"}
{"Molecule": "O=C1NC(=Nc2ccccc2Cl)N/C1=C\\c1ccc(Cl)cc1Cl", "TGI": "> 100 µM"}
{"Molecule": "CC(=O)NC1(C)C(C)C2CC1C(C)C2(C)C (stereo unspecified)", "TGI": "> 100 µM"}
{"Molecule": "COc1cc(Nc2ncnc(Nc3ccc4c(n3)NC(=O)C(C)(C)O4)n2)cc(OC)c1OC", "TGI": "> 100 µM"}

Query molecule follows.
Entry CN(C)N=Nc1ccc2[nH]c(=O)[nH]c2c1 , TGI reported as > 100 µM

---

- Test system: IGROV1 ovarian
- Test name: NCI tumour cell line growth inhibition, 48 h
Measurement label: TGI

Take a look at these entries with their results.
{"Compound": "COc1ccc(-c2nsc3c2NC(=O)CC3c2cccc(Cl)c2)cc1 (centres undefined)", "System": "IGROV1 ovarian", "Val": "> 100 µM"}
{"Compound": "O=C1NC(=Nc2ccccc2)C(=Nc2ccccc2)N1c1ccccc1", "System": "IGROV1 ovarian", "Val": "31 µM"}
{"Compound": "NC(=S)N/N=C1/CN(c2ccc(Cl)c(Cl)c2)CC(=O)C1c1nc2ccccc2s1 (centres undefined)", "System": "IGROV1 ovarian", "Val": "> 100 µM"}
{"Compound": "COc1cc(OC)c(OC)cc1/C=C/c1cc[n+](C)c2ccccc12", "System": "IGROV1 ovarian", "Val": "> 100 µM"}

Entry COC(=O)CCC(=O)N1CC1C (centres undefined) , TGI reported as > 100 µM

Entry CC[n+]1c(/C=C/c2ccc(N(CCCl)CCCl)cc2)ccc2cc(I)ccc21 , TGI reported as 8.27 µM

Entry CC(=O)O[C@H]1C(=O)[C@@]2(C)[C@H]([C@H](OC(=O)c3ccccc3)[C@]3(O)C[C@H](OC(=O)[C@H](O)[C@@H](NC(=O)c4ccc(N(C)C)cc4)c4ccccc4)C(C)=C1C3(C)C)[C@]1(OC(C)=O)CO[C@@H]1C[C@@H]2O , TGI reported as > 50 µM

Entry OC12c3ccccc3C1CCCCCC21OCCCO1 (centres undefined) , TGI reported as > 100 µM

Entry O/N=C\C(=Nc1ccc(Cc2ccc(N=C(/C=N\O)NO)cc2)cc1)NO , TGI reported as > 100 µM

---

- Test system: KM12 colon
- Test name: NCI tumour cell line growth inhibition, 48 h; in the data active means GI50 below about 0.43 µM; inactive means the rest
I would appreciate it if you answered using one of these outcomes: active, inactive

Solved entries:
{"Compound": "CCc1nn2ncccc2c1-c1ccnc(NC2CC2)n1", "Answer label": "inactive"}
{"Compound": "O=C(Nc1ccc2c(c1)OCCO2)C(=O)c1c[nH]c2ccccc12", "Answer label": "inactive"}
{"Compound": "COc1ccc(-c2nc(N)c(C#N)c3c2CCOc2c-3ccc3ccccc23)cc1", "Answer label": "inactive"}
{"Compound": "COc1ccc2[nH]c(C(=O)OCc3ccc4cccc(O)c4n3)cc2c1", "Answer label": "inactive"}
{"Compound": "COc1cc(NC(C)CCCNC(C)C)c2ncccc2c1OC (stereo not given)", "Answer label": "inactive"}
{"Compound": "O=C(CN(/C=C/C(=O)C(F)(F)F)c1ccccc1)c1ccc(Cl)cc1", "Answer label": "inactive"}
{"Compound": "Nc1ccc(-c2ccc3ncc4ccc(=O)n(-c5cccc(C(F)(F)F)c5)c4c3c2)cn1", "Answer label": "active"}
{"Compound": "COc1cc(-c2cc3ncccc3c3[nH]c(=O)c4cccnc4c23)cc(OC)c1OC", "Answer label": "inactive"}

Just curious, what result did Cc1c(C)c2c(c(C)c1OCC(=O)O)CC[C@@](C)(CCC[C@@H](C)CCC[C@@H](C)CCCC(C)C)O2 get here? inactive

Just curious, what result did C=C(CN1c2ccccc2Sc2ccccc21)c1ccc(C(=O)Nc2ccccc2N)cc1 get here? inactive

---

- System: T-47D breast
- Test name: NCI tumour cell line growth inhibition, 48 h
Measurement label: TGI

{"Compound": "CN1CCN(CCCOc2cccc3nc(Nc4ccc(F)c(F)c4)ccc23)CC1", "Measurement label": "TGI", "Val": "9.26 µM"}

Entry COc1ccc(-c2nn3ncccc3c2-c2ccnc(Nc3ccc4c(c3)OCCO4)n2)cc1 , TGI reported as > 25 µM

Entry Cc1cccc(Nc2cc(Cl)nc(SCC(=O)O)n2)c1C , TGI reported as > 100 µM

Entry Cc1cc(C)nc(NS(=O)(=O)c2ccc(NC(=O)c3cc([N+](=O)[O-])cc([N+](=O)[O-])c3)cc2)n1 , TGI reported as > 100 µM

Entry O=c1c2c3c(sc2nc2n1N=CN(c1ccc(F)cc1)C2)CCCC3 , TGI reported as > 100 µM

Entry CCc1nc2cc(/C=C/C(=O)NO)ccc2c(=O)n1CCc1ccc(OC)cc1 , TGI reported as 7.13 µM

Entry O=C1C(Cl)=C(NCCF)C(=O)c2ncccc21 , TGI reported as 4.25 µM

Entry COc1cc(-c2nccc3cc4c(cc23)OCO4)cc(OC)c1OC , TGI reported as > 100 µM

Entry Cc1ccc(SCC(OCn2cnc3c(Cl)nc(N)nc32)[C@H](C)F)cc1 (some centres undefined) , TGI reported as > 100 µM

---

- Tested on: RPMI-8226 leukemia
- Test name: NCI tumour cell line growth inhibition, 48 h
Decide by TGI: equal to or exceeding 40 µM means fulfilled, less means not fulfilled.

Solved entries:
{"Compound": "COc1cc(S(=O)(=O)Nc2ccc(-c3csc(N4C(=O)C(Cl)C4c4cccs4)n3)cc2)ccc1Cl (stereo not drawn)", "Answer label": "fulfilled"}
{"Compound": "O=C(NC1(C(=O)O)CCCC1)c1ccccc1", "Answer label": "fulfilled"}
{"Compound": "COc1cc(C2c3cc4c(cc3[C@@H](N(C)c3ccc(N(C)C)cc3)C3COC(=O)C23)OCO4)cc(OC)c1O (stereo partly drawn)", "Answer label": "fulfilled"}
{"Compound": "C[n+]1ccccc1/C1=c2\\cc/c([nH]2)=C(\\c2cccc[n+]2C)C2=N/C(=C(/c3cccc[n+]3C)C3C=CC(N3)/C(c3cccc[n+]3C)=C3/C=CC1=N3)C=C2", "Answer label": "fulfilled"}
{"Compound": "CNC(=S)/C(C#N)=C(\\N)N1CCCC1", "Answer label": "fulfilled"}
{"Compound": "NCCOc1ncccc1/C=C1\\c2ccccc2-c2ccc([N+](=O)[O-])cc21", "Answer label": "not fulfilled"}
{"Compound": "Cc1cc2c(cc1CO)N1Cc3cc(C)c(CO)cc3N(C2)C1", "Answer label": "fulfilled"}
{"Compound": "CCn1c(=N)sc2nc3ccccc3n2c1=O", "Answer label": "fulfilled"}
{"Compound": "O=C(/C=C\\n1cnc(-c2cc(C(F)(F)F)cc(C(F)(F)F)c2)n1)N1CC(F)(F)C1", "Answer label": "not fulfilled"}
{"Compound": "CCC(C)(O)c1cn(-c2ccc(S(=O)(=O)O)cc2)nn1 (stereo not drawn)", "Answer label": "fulfilled"}

Now, please, on to the next compound.
Please check the record O=C1NC(=Nc2ccccc2)C(=Nc2ccccc2)N1c1ccccc1 and state if its TGI is at or above 40 µM. fulfilled
